target: TRPC5 (Homo sapiens, UniProt Q9UL62); construct: expressed in transfected cells; host or cells: HEK 293; assay: TRPC5 automated patch clamp assay (Qpatch), current block after rosiglitazone stimulation; format: cell-based; conditions: Table 5; HEK293 cells overexpressing TRPC5; rosiglitazone stimulation; 100 mV; read-out: TRPC5_QP_ XC50_100
Sequence (Q9UL62 whole entry): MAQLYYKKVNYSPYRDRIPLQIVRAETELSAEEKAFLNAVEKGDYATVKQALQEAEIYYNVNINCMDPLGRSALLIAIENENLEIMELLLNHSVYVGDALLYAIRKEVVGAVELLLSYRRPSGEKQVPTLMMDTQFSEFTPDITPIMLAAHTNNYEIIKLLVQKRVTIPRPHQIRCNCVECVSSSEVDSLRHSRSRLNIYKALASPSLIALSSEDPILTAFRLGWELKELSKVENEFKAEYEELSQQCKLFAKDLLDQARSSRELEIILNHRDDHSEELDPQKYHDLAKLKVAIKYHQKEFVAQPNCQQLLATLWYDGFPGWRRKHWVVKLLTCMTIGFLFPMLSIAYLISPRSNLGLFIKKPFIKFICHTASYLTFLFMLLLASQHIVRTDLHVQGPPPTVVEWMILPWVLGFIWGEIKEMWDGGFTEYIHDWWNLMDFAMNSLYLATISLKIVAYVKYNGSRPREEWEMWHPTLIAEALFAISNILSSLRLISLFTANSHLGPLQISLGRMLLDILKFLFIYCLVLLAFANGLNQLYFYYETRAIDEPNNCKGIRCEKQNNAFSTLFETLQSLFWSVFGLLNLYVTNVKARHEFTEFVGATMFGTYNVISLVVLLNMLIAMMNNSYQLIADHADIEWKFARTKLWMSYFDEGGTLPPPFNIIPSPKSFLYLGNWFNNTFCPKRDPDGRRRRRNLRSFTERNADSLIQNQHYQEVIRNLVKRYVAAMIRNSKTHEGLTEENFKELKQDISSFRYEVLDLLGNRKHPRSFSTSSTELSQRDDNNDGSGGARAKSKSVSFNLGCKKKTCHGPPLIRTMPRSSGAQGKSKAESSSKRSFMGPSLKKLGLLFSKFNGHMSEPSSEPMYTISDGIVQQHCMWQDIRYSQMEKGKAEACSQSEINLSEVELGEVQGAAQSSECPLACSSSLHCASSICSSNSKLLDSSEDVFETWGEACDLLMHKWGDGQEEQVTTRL
pIC50: −log10 of the molar value.
assay_endpoint: pIC50

Would you please look over these solved cases?
• Cc1cc(F)ccc1CN1CCN(c2c(C)n[nH]c(=O)c2Cl)CC1=O = 3.30 to 5.00
• CCCOc1n[nH]c(=O)cc1N1CCN(Cc2ccc(F)cc2C)CC1 = 3.30 to 5.00
• Cc1ccccc1Cn1cnc2c1CCN(c1cn[nH]c(=O)c1Cl)C2 [drawing 830] = 6.00 to 11.00
• O=C1CN(c2cn[nH]c(=O)c2Cl)CCN1C1(c2ccccc2)CC1 = 5.30 to 6.00
• CC(c1ccccc1)n1cnc2c1CCN(c1cn[nH]c(=O)c1Cl)C2 (stereo not shown) = 5.30 to 6.00

Now look at this one.
Incoming: Requested read-out: pIC50. Entry: C[C@H](c1ccccc1)n1cnc2c1CCN(c1cn[nH]c(=O)c1Cl)C2 [drawing 833]
Outgoing: 5.30 to 6.00
